# Tested Target: T1, recombinant human IFN-γ protein (human, UniProt P01579 24-166, limits assumed)
# T1 construct: Bought protein; also called interferon gamma; R&D systems 285-IF-100
# T1 sequence: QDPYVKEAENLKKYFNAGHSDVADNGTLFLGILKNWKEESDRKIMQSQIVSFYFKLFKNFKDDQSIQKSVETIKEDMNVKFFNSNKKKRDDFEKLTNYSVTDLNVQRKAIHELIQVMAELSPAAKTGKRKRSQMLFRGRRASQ
# Experiment Description: BLI (Octet RED96), mAb captured on AHC biosensor, recombinant human IFN-γ in solution, 1:1 model
Quick reference: Kd of the listed items.
Reported Endpoint: Kd (nM)

- Binder: "antibody 1E8 (antibody, human IgG1, V domains shown, Human IgG1 lambda) VH: EVQLLESGGGLVQPGGPLRLSCAASGFTFSIYSMNWVRQAPGKGLEWVSSISGSGDNTYYADSVKGRFTITRDSSKNTLYLQMNTLRAEDTAVYFCAKSGRNIISPGFDSWGQGTLVTVSS VL: QPVLTQPPSASASLGASVTLTCTLNSDYGDYKVDWYQQRPGKGPRFVMRVGTGGIVGSKGDGIPDRFSVLGSGLNRFLTIKNIQEEDESDYYCGADHGSANNFIWVFGGGTKLTVL"
  Reported Endpoint: "Kd"
  Unit Text: "nM"
  Recorded Measurement: 0.261
- Binder: "antibody 2F2 (antibody, human IgG1, V domains shown, Human IgG1 lambda) VH: EVQLVESGGGLVKPGESLRLACVASGFNFSDYYMTWIRQAPGKGLEWVSYISNSGSHTYYADAVKGRFTVSRDNAKNSLYLQMTSLRGEDTAIYFCARDPSIMRGTYYMDVWGKGTTVTVSS VL: QSVLTQPPSASGTPGQRVTISCSGSSSNIGTNPVSWYQQFPGMAPKLLIYFNNQRPSGVPERFSGSKSGTPASLAIGGLQSEDEANYYCASWDDTLNGLVFGGGTKLTVL"
  Reported Endpoint: "Kd"
  Unit Text: "nM"
  Recorded Measurement: 0.317
- Binder: "antibody 2B6 (antibody, human IgG1, V domains shown, Human IgG1 lambda) VH: EVQLVESGGGLVKPGGSLRLSCAASGFPFSRYSMHWVRQAPGKGLEWVSSMTSRTNHKYYADSLKGRFLISRDNDRDSLYLEMNSLGVEDTAIYFCARGYDTSGSDSGVDFQYWGQGTLVTVSS VL: NFMLTQPHSVSESPGKTITISCTRGRGYIASYYVQWYQQRPGGVPKIVVFEDTQRPSGVPDRISGSIDTSTNSASLTISGLQTEDEADYYCQSYDDANHVIFGGGTKLTVL"
  Reported Endpoint: "Kd"
  Unit Text: "nM"
  Recorded Measurement: 0.0731
- Binder: "antibody 2A6 (antibody, human IgG1, V domains shown, partial N-linked glycosylation at Asn-76 of the VH, Human antibody from a single B cell, cloned into human IgG1 lambda expression vectors and made in FreeStyle 293-F cells) VH: EVQLVESGGGLVKPGDSLTVSCVASGFTFSNYFIHWVRQAPGKGLEWVATISGRTKYMFYSDSLRGRFTVSRDNANNSVYLHMSSLRGEDTALYYCVRGYDHSDSNSAADLLHWGRGTLVTVSS VL: NFMLTQPLSVSGYPGKTIVISCVRSSGSVASHYVQWFQQRPGSAPAMVIYEDSHRPSGIPDRFSGSVDASSNSASLTISGLKTEDEADYFCQSYYGNNQVLFGGGTKLTVL"
  Reported Endpoint: "Kd"
  Unit Text: "nM"
  Recorded Measurement: 0.0368
